The following compounds are shown together with reported ring closure, yield over several steps values.
experiment: Au(I)-mediated imine macrocyclisation (JohnPhosAu(MeCN)SbF6 2 equiv, Et4NBr 16 equiv) then in situ NaBH4 reduction to cyclic amine, HPLC isolation; conditions: the molecule shown is the open-chain precursor; 24-membered ring; DMF; 8.0 mM; 37.0 °C; 1.0 h; 2 steps
Answer format reminder: number followed by unit.

# annotated cases, reported ring closure, yield over several steps shown
| compound | result |
| --- | --- |
| C#CCN(CC(N)=O)C(=O)CNC(=O)[C@H](C)NC(=O)[C@H](CO)NC(=O)[C@H](Cc1ccc(O)cc1)NC(=O)[C@H](CC(C)C)NC(=O)CNC(=O)[C@@H](N)Cc1ccccc1 [H-Phe-Gly-Leu-Tyr-Ser-Ala-Gly-(N-propargyl)Gly-NH2] | 60% |
| C#CCN(CC(N)=O)C(=O)[C@@H](NC(=O)[C@H](C)NC(=O)[C@H](CCCNC(=N)N)NC(=O)[C@H](Cc1ccc(O)cc1)NC(=O)[C@H](CC(C)C)NC(=O)CNC(=O)[C@@H](N)Cc1ccccc1)[C@@H](C)CC [H-Phe-Gly-Leu-Tyr-Arg-Ala-Ile-(N-propargyl)Gly-NH2] | 66% |
| C#CCN(C(=O)CNC(=O)[C@H](C)NC(=O)[C@H](CCCNC(=N)N)NC(=O)[C@H](Cc1ccc(O)cc1)NC(=O)[C@H](CC(C)C)NC(=O)CNC(=O)[C@@H](N)Cc1ccccc1)[C@H](C(N)=O)[C@@H](C)CC [H-Phe-Gly-Leu-Tyr-Arg-Ala-Gly-(N-propargyl)Ile-NH2] | 60% |

Consider the additional compound presented here.
Give ring closure, yield over several steps for C#CCN(CC(N)=O)C(=O)CNC(=O)[C@H](C)NC(=O)[C@H](CCCNC(=N)N)NC(=O)[C@H](Cc1ccc(O)cc1)NC(=O)[C@H](CC(C)C)NC(=O)CNC(=O)[C@@H](N)Cc1c[nH]c2ccccc12 [H-Trp-Gly-Leu-Tyr-Arg-Ala-Gly-(N-propargyl)Gly-NH2] 74%

Measured values drawn from paper PMC8949771 for this set.
